So I've got a bunch of compounds here, and I need their %Inh values.
- Test system: AURKC
- assay.setup: concentration: 1 μM,replicates: in singlicate; n = 1;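 also: KINOMEscan kinase panel screen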
Numbers only, in %.

Before answering, review these 2 worked examples.
> print(dat)
                                   compound  unit.descriptor  observed
1  O=c1[nH]cc(-c2ccc(O)cc2)c2sc(-c3ccncc3)cc12 [GSK1033723]                %         8
2  OCCn1cc(-c2cnc3nnn(Cc4ccc5ncccc5c4)c3n2)cn1                %         0

Dear reader, for each entry below, please note its %Inh.
1. CCN1CCN(CCCC(=O)Nc2n[nH]c3nc(-c4ccc(O)cc4)c(Br)cc23)CC1 [SB-731579]
2. Cn1ccc2ncnc(Oc3ccc(NC(=O)Nc4cnn(C(C)(C)C)c4)c(Cl)c3)c21
3. CS(=O)(=O)Nc1ccc(-c2ccnc3[nH]ccc23)cc1 [GSK993273]

[0, 52, 76]

Dear reader, for each entry below, please note its %Inh.
1. Cn1ccc2ncnc(Oc3ccc(NC(=O)Nc4cccc(C(F)(F)F)c4)c(Cl)c3)c21
2. Cl.Nc1n[nH]c2cc(-c3ccccn3)ccc12 [GSK2189892]
3. Nc1nccc(-c2ccc3c(N)n[nH]c3c2)n1 [GSK1034945]
4. COC(=O)Nc1nc2cc(Oc3ccc(NC(=O)Nc4cc(C(F)(F)F)ccc4Cl)cc3)ccc2[nH]1.Cl [GW697465]

29
0
51
53

* * *

So I've got a bunch of compounds here, and I need their %Inh values.
- Test system: FGFR2
- assay.setup: concentration: 1 μM,replicates: in singlicate; n = 1
Put down the number, then write its unit next to it.

Dear reader, for each entry below, please note its %Inh.
1. Cc1ccc(Nc2ccnc(Nc3ccc4c(c3)CS(=O)(=O)C4)n2)cc1O.Cl
2. CC(C)c1nc(-c2cccc(NS(=O)(=O)c3ccccc3)c2)c(-c2ccnc(Nc3ccc4c(c3)CN(C)CC4)n2)s1
3. CC(=O)Nc1ccc(-c2cc3ncnc(SCC(=O)O)c3s2)cc1
4. CS(=O)(=O)Nc1ccc(-c2ccnc3[nH]ccc23)cc1
5. NC(=O)c1ccc(-c2cc3ncnc(SCC(=O)O)c3s2)cc1
6. Cc1ccn2nc(-c3ccc(F)cc3)c(-c3ccncc3)c2c1.Cl
7. C[C@@H](Oc1cc(-n2cnc3cc(-c4ccncc4)ccc32)sc1C(N)=O)c1ccccc1Cl
8. Cc1nnc(-c2ccc3occ(-c4ccc(S(C)=O)cc4)c3n2)o1 (stereo not drawn)

1. 79%
2. 6%
3. 15%
4. 20%
5. 0%
6. 85%
7. 57%
8. 0%

Dear reader, for each entry below, please note its %Inh.
1. Cl.Nc1n[nH]c2cc(-c3ccccn3)ccc12
2. COc1cccc(C2=C(Nc3cccc(Cl)c3)C(=O)NC2=O)c1
3. C[C@@H]1CNc2c(sc3ccc4nc(-c5ccc(O)cc5)ccc4c23)C(=O)N1
4. CCCC(=O)Nc1n[nH]c2ncccc12
5. Cn1ccc2ncnc(Oc3ccc(NC(=O)Nc4cc(C(C)(C)C)on4)c(Cl)c3)c21
6. Cc1ccc(C(=O)Nc2ccc(Oc3ccc4nc(NC(=O)C5CC5)cn4c3)c(F)c2)c(=O)n1-c1ccccc1
7. O=c1[nH]cc(-c2ccc(O)cc2)c2sc(-c3ccncc3)cc12

["15%", "23%", "16%", "0%", "72%", "23%", "0%"]

Dear reader, for each entry below, please note its %Inh.
1. CN1CCN(CCNc2nc3cc(Oc4ccc(NC(=O)Nc5cc(C(F)(F)F)ccc5F)cc4)ccc3[nH]2)CC1.Cl.Cl
2. CS(=O)c1ccc(-c2coc3ccc(-c4n[nH]c(=O)o4)cc23)cc1 (stereo not drawn)
3. Cn1ccc2ncnc(Oc3ccc(NC(=O)Nc4cncc(C(F)(F)F)c4)c(Cl)c3)c21

0%
8%
0%

Measured values drawn from paper PMC5540273 for this set.
